Where these numbers come from: patent US8541427B2

# testedOn: UniProt:Q12809
# Sequence (Q12809 whole entry): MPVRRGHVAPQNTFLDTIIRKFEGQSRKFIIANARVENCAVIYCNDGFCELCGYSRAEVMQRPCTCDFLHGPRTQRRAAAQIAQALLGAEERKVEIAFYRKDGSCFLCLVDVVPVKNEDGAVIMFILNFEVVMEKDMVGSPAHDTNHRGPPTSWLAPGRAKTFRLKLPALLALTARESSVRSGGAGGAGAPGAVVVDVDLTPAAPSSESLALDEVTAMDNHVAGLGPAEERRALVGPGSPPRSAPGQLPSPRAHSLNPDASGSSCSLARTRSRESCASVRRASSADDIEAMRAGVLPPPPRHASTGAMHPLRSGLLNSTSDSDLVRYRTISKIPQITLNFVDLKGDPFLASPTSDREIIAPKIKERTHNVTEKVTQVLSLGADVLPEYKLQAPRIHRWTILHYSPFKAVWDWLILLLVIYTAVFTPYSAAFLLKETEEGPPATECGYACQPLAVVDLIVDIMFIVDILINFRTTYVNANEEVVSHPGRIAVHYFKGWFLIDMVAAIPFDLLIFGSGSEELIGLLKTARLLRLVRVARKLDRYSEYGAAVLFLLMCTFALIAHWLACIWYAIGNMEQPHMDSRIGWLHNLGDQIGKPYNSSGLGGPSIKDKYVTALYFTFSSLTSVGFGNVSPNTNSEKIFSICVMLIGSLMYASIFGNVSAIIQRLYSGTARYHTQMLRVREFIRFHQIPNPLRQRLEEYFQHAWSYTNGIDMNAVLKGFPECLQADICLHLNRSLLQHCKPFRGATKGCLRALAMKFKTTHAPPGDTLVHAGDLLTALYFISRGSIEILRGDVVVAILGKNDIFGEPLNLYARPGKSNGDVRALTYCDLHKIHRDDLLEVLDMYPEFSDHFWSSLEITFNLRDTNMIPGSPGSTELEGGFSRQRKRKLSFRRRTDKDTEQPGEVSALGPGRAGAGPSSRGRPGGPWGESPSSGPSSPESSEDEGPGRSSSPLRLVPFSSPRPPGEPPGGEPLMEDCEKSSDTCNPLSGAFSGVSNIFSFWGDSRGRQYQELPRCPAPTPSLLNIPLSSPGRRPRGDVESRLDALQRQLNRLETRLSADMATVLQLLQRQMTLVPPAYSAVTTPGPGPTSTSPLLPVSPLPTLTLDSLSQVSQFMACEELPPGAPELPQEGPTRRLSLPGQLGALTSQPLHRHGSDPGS
# testMethodNotes: hERG screening, IonWorks Quattro (hERG L929 cells)
# Type: cell-based
# experimentalSetup: L929 cells expressing hERG, 1 uM, read-out: HERG Ionworks % Inhib 1 uM
Quick rule for you: inhibition at 5 min, 1 uM at 20% or higher means Y, lower means N.

| givenSmiles | assignedCategory |
| --- | --- |
| COc1nc(N2C[C@H]3C(=O)N(C)C(N)=N[C@@]3(c3c(F)ccc(F)c3F)C2)nc(C)c1F | N |
| COc1nc(N2C[C@H]3C(=O)N(C)C(=N)N[C@@]3(c3ccc(F)cc3)C2)nc(C2CC2)c1F | N |
| COc1nc(N2C[C@H]3C(=O)N(C)C(=N)N[C@@]3(c3ccc(F)cc3Cl)C2)nc(C)c1F | Y |
| COc1nc(N2C[C@H]3C(=O)N(C)C(=N)N[C@@]3(c3cc(F)ccc3F)C2)nc(OC)c1F | N |
| COc1nc(N2C[C@H]3C(=O)N(C)C(=N)N[C@@]3(c3cc(Cl)ccc3F)C2)nc(C)c1F | Y |

----------
The compounds listed here are annotated with their IC50.
# testedOn: CYP3A4 (Homo sapiens (Human))
# Sequence (P08684 whole entry): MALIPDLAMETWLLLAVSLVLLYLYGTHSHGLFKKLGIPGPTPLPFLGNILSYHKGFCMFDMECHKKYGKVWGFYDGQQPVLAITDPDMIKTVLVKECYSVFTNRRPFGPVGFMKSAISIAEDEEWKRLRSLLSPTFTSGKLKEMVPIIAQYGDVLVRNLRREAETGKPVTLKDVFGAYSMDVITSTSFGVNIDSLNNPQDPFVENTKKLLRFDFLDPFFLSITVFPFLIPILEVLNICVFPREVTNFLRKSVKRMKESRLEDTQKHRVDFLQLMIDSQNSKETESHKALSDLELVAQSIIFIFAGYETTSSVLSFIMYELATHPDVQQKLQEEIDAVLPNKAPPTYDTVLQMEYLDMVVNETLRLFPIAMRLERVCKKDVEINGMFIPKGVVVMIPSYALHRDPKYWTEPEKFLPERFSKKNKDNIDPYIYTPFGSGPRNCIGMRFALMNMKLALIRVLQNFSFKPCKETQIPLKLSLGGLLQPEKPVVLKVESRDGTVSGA
# testMethodNotes: CYP Inhibition Assay, CYP3A4;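 also: CYP probe substrate held near its Km, inhibition judged from metabolite formation quantified by LC-MS/MS against a standard curve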
# Type: in vitro ADME
# experimentalSetup: human liver microsomes, 30 min pre-incubation with NADPH; read-out: CYP 3A4 IC50 pre

| compound | testedOn | IC50 |
| --- | --- | --- |
| COc1nc(N2C[C@H]3C(=O)N(C)C(N)=N[C@@]3(c3cc(F)c(F)cc3F)C2)nc(C)c1F [Example 8] | CYP3A4 (Homo sapiens (Human)) | > 20 µM |
| CCc1nc(N2C[C@H]3C(=O)N(C)C(N)=N[C@@]3(c3ccccc3)C2)nc(C)c1F (racemic) [5 racemic] | CYP3A4 (Homo sapiens (Human)) | > 30 µM |
| CCOc1nc(N2C[C@H]3C(=O)N(C)C(=N)N[C@@]3(c3ccccc3)C2)nc(OC)c1F (racemic) [24 racemic] | CYP3A4 (Homo sapiens (Human)) | > 30 µM |
| COc1nc(N2C[C@H]3C(=O)N(C)C(=N)N[C@@]3(c3cc(Cl)ccc3F)C2)nc(C)c1F [Example 3] | CYP3A4 (Homo sapiens (Human)) | > 20 µM |
| COc1nc(N2C[C@H]3C(=O)N(C)C(=N)N[C@@]3(c3c(F)cc(F)cc3F)C2)nc(C)c1F [Example 13] | CYP3A4 (Homo sapiens (Human)) | > 20 µM |
| COc1nc(N2C[C@H]3C(=O)N(C)C(=N)N[C@@]3(c3ccc(F)cc3)C2)nc(C2CC2)c1F [Example 21] | CYP3A4 (Homo sapiens (Human)) | > 20 µM |
| COc1nc(N2C[C@H]3C(=O)N(C)C(=N)N[C@@]3(c3cc(F)ccc3F)C2)nc(C2CC2)c1Cl [Example 35] | CYP3A4 (Homo sapiens (Human)) | ~20 µM |
| COc1nc(N2C[C@H]3C(=O)N(C)C(=N)N[C@@]3(c3ccc(F)cc3F)C2)nc(C2CC2)c1Cl [Example 19] | CYP3A4 (Homo sapiens (Human)) | > 20 µM |
| CCc1nc(N2C[C@H]3C(=O)N(C)C(=N)N[C@@]3(c3ccc(F)cc3)C2)nc(OC)c1F [Example 30] | CYP3A4 (Homo sapiens (Human)) | > 30 µM |
| COc1nc(N2C[C@H]3C(=O)N(C)C(N)=N[C@@]3(c3c(F)ccc(F)c3F)C2)nc(C)c1F [Example 40] | CYP3A4 (Homo sapiens (Human)) | > 20 µM |
| CCc1nc(N2C[C@H]3C(=O)N(C)C(=N)N[C@@]3(c3cc(F)c(F)cc3F)C2)nc(OC)c1F [Example 22] | CYP3A4 (Homo sapiens (Human)) | > 20 µM |
| COc1nc(N2C[C@H]3C(=O)N(C)C(=N)N[C@@]3(c3ccc(F)cc3)C2)nc(OC)c1F [Example 27] | CYP3A4 (Homo sapiens (Human)) | 4.2 µM |
| COc1nc(N2C[C@H]3C(=O)N(C)C(=N)N[C@@]3(c3ccc(F)cc3F)C2)nc(OC)c1F [Example 10] | CYP3A4 (Homo sapiens (Human)) | > 30 µM |
| COc1nc(N2C[C@H]3C(=O)N(C)C(=N)N[C@@]3(c3cc(F)ccc3F)C2)nc(OC)c1F [Example 9] | CYP3A4 (Homo sapiens (Human)) | 18.6 µM |
| CCc1nc(N2C[C@H]3C(=O)N(C)C(N)=N[C@@]3(c3ccccc3)C2)nc(C2CC2)c1Cl (racemic) [26 racemic] | CYP3A4 (Homo sapiens (Human)) | > 20 µM |
| COc1nc(N2C[C@H]3C(=O)N(C)C(=N)N[C@@]3(c3cc(F)ccc3F)C2)nc(C2CC2)c1F [Example 34] | CYP3A4 (Homo sapiens (Human)) | > 20 µM |
| CCc1nc(N2C[C@H]3C(=O)N(C)C(=N)N[C@@]3(c3ccccc3)C2)nc(OC)c1F (racemic) [6 racemic] | CYP3A4 (Homo sapiens (Human)) | > 30 µM |
| Cc1nc(N2C[C@H]3C(=O)N(C)C(=N)N[C@@]3(c3cccc(C#N)c3)C2)nc(C2CC2)c1F [Example 14] | CYP3A4 (Homo sapiens (Human)) | > 20 µM |
| COc1nc(N2C[C@H]3C(=O)N(C)C(=N)N[C@@]3(c3ccc(F)c(Cl)c3F)C2)nc(C)c1F (racemic) [39 racemic] | CYP3A4 (Homo sapiens (Human)) | > 20 µM |
| Cc1nc(N2C[C@H]3C(=O)N(C)C(=N)N[C@@]3(c3ccc(F)cc3)C2)nc(C)c1F [Example 28] | CYP3A4 (Homo sapiens (Human)) | > 30 µM |
| COc1nc(N2C[C@H]3C(=O)N(C)C(=N)N[C@@]3(c3ccc(F)cc3F)C2)nc(CO)c1F [Example 43] | CYP3A4 (Homo sapiens (Human)) | > 20 µM |
| COc1nc(N2C[C@H]3C(=O)N(C)C(=N)N[C@@]3(c3ccc(F)cc3Cl)C2)nc(C)c1F [Example 20] | CYP3A4 (Homo sapiens (Human)) | 8.3 µM |
| COc1nc(N2C[C@H]3C(=O)N(C)C(=N)N[C@@]3(c3cccc(C#N)c3)C2)nc(C)c1F [Example 36] | CYP3A4 (Homo sapiens (Human)) | > 20 µM |
